Values from patent US20110301142A1

# measured_target: human LPA1 (Homo sapiens, UniProt Q92633)
# Construct: the full-length cDNA for human LPA1 was obtained by PCR of the reverse transcription reaction
# Sequence (Q92633 whole entry): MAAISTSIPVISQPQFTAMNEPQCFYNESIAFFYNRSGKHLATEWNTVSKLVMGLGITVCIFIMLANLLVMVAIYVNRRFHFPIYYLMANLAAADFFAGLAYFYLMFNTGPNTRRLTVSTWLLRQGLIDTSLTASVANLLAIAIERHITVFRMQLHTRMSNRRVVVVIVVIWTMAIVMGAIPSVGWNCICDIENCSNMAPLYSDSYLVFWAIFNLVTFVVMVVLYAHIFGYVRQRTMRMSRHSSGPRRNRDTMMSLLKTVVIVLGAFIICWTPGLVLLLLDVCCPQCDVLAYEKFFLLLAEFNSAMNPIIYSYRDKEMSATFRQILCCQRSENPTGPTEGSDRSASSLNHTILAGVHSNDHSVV
# protocol_description: LPA1 calcium flux assay (HLPA1 Ca Flux)
# measurement_parameters: Human LPA1 expressing CHO cells, stimulated with 10 nM LPA

{"columns": ["compound", "IC50"],
 "data": [
  ["Cc1noc(-c2ccc(Cc3cccc(C(=O)O)c3)cc2)c1NC(=O)OCc1ccccc1Br", "1000 to 50000 nM"],
  ["Cc1noc(-c2ccc(Cc3cc(C(=O)O)ccc3Cl)cc2)c1NC(=O)OC(C)c1ccccc1Cl (centres unmarked)", "300 to 1000 nM"],
  ["Cc1noc(-c2csc(-c3ccccc3CC(=O)O)n2)c1NC(=O)O[C@H](C)c1ccccc1F", "1000 to 50000 nM"],
  ["Cc1noc(-c2ccc(-c3ccc(CC(=O)O)cc3)cc2Cl)c1NC(=O)O[C@H](C)c1ccccc1Cl", "< 300 nM"],
  ["Cc1noc(-c2ccc(-c3ccc(F)c(CC(=O)O)c3)cc2)c1NC(=O)OC(C)c1ccccc1Cl (centres unmarked)", "< 300 nM"]
]}

###

# measured_target: human LPA1 (Homo sapiens)
# Construct: the full-length cDNA for human LPA1 was obtained by PCR of the reverse transcription reaction
# protocol_description: LPA1 calcium flux assay (HLPA1 Ca Flux)
# measurement_parameters: Human LPA1 expressing CHO cells, stimulated with 10 nM LPA

{"columns": ["molecule", "IC50"],
 "data": [
  ["Cc1noc(-c2ccc(-c3cccc(C(=O)O)n3)cc2)c1NC(=O)OC(C)c1ccccc1Cl (stereo not shown)", "< 300 nM"],
  ["Cc1noc(-c2ccc(C3=CCC(C(=O)O)CC3)cc2)c1NC(=O)OC(C)c1ccccc1Cl (stereo not shown)", "< 300 nM"],
  ["Cc1noc(-c2ccc(Cc3ccc(C(=O)O)s3)cc2)c1NC(=O)OC(C)c1ccccc1Cl (stereo not shown)", "< 300 nM"],
  ["Cc1noc(-c2ccc(Sc3ccccc3CC(=O)O)cc2)c1NC(=O)O[C@H](C)c1ccccc1F", "1000 to 50000 nM"]
]}

###

We begin with a simple list: items and their reported IC50.
# measured_target: human LPA3 (Homo sapiens)
# Construct: The full-length cDNA fragment for human LPA3 was obtained by PCR from the vector; cDNA from the Missouri S&T cDNA Resource Center
# Sequence (Q9UBY5 whole entry, the tested form may be a part): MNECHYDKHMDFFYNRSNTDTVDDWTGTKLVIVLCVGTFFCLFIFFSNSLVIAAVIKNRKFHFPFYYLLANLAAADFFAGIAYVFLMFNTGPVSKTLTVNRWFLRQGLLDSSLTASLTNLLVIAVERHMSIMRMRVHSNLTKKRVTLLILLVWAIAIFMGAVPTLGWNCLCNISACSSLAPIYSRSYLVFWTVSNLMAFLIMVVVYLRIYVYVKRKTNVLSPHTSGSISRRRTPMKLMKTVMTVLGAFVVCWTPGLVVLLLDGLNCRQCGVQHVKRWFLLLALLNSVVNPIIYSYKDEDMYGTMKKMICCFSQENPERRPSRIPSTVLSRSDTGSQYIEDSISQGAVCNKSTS
# protocol_description: LPA3 calcium flux assay
# measurement_parameters: Human LPA3 expressing CHO cells, stimulated with 10 nM LPA; read-out: HLPA3 Ca Flux IC50
# Protocol: A vector containing the human LPA3 receptor cDNA was obtained from the Missouri S&T cDNA Resource Center (www.cdna.org). The full-length cDNA fragment for human LPA3 was obtained by PCR from the vector. The nucleotide sequence of the cloned human LPA3 was determined by sequencing and confirmed to be identical to the published human LPA3 sequence (NCBI accession number NM 012152). […]
property_label: IC50

{"columns": ["compound", "measured_target", "property_label", "result"],
 "data": [
  ["Cc1noc(-c2ccc(-c3ccc(C(=O)O)nc3)cc2)c1NC(=O)OC(C)c1ccccc1Cl (stereo not shown) [Compound 1-56]", "human LPA3 (Homo sapiens)", "IC50", "1 to 50 µM"],
  ["Cc1noc(-c2cccc(-c3cccc(CC(=O)O)c3)c2)c1NC(=O)OC(C)c1ccccc1Cl (stereo not shown) [Compound 1-60]", "human LPA3 (Homo sapiens)", "IC50", "1 to 50 µM"],
  ["CCC(C(=O)O)c1ccc(-c2ccc(-c3onc(C)c3NC(=O)O[C@H](C)c3ccccc3Cl)cc2)cc1 (stereo partly shown) [Compound 1-130]", "human LPA3 (Homo sapiens)", "IC50", "0.3 to 1 µM"],
  ["Cc1noc(-c2ccc(-c3cccc(C(=O)O)c3)cc2)c1NC(=O)OC(C)c1ccccc1Cl (stereo not shown) [Compound 1-76]", "human LPA3 (Homo sapiens)", "IC50", "1 to 50 µM"],
  ["Cc1noc(-c2ccc(C3=CCC(C(=O)O)CC3)cc2)c1NC(=O)OC(C)c1ccccc1Cl (stereo not shown) [Compound 1-66]", "human LPA3 (Homo sapiens)", "IC50", "1 to 50 µM"],
  ["Cc1noc(-c2ccc(COc3ccc(CC(=O)O)cc3)cc2)c1NC(=O)OC(C)c1ccccc1Cl (stereo not shown) [Compound 1-100]", "human LPA3 (Homo sapiens)", "IC50", "1 to 50 µM"],
  ["Cc1noc(-c2ccc(COc3cccc(C(=O)O)c3)cc2)c1NC(=O)OC(C)c1ccccc1Cl (stereo not shown) [Compound 1-12]", "human LPA3 (Homo sapiens)", "IC50", "1 to 50 µM"]
]}

###

# measured_target: human LPA1 (Homo sapiens, UniProt Q92633)
# Construct: the full-length cDNA for human LPA1 was obtained by PCR of the reverse transcription reaction; expressed in transfected cells
# protocol_description: LPA1 calcium flux assay (HLPA1 Ca Flux)
# Type: cell-based
# measurement_parameters: Human LPA1 expressing CHO cells, stimulated with 10 nM LPA

{"columns": ["compound", "IC50"],
 "data": [
  ["Cc1noc(-c2ccc(-c3cccc(CC(=O)O)c3)cc2)c1NC(=O)O[C@H](C)c1ccccc1", "< 0.3 µM"],
  ["Cc1noc(-c2csc(-c3cccc(CC(=O)O)c3)n2)c1NC(=O)O[C@H](C)c1ccccc1F", "0.3 to 1 µM"],
  ["Cc1noc(-c2ccc(-c3ccc(C(C)(C)C(=O)O)cc3)cc2)c1NC(=O)O[C@H](C)c1ccccc1F", "< 0.3 µM"],
  ["Cc1noc(-c2ccc(-c3ccc(C(=O)O)cc3)cc2)c1NC(=O)OC(C)C", "1 to 50 µM"],
  ["Cc1noc(-c2ccc(-c3ccc(CC(=O)O)cn3)cn2)c1NC(=O)O[C@H](C)c1ccccc1F", "< 0.3 µM"],
  ["Cc1noc(-c2ccc(-c3ccc(CC(=O)O)cc3)cc2)c1NC(=O)O[C@H](C)c1cccc(O)c1", "1 to 50 µM"],
  ["Cc1noc(-c2cccc(-c3cccc(C(=O)O)c3)c2)c1NC(=O)OC(C)c1ccccc1Cl (centres unmarked)", "1 to 50 µM"],
  ["Cc1noc(-c2ccc(Cc3ccc(CC(=O)O)cc3)cc2)c1NC(=O)O[C@H](C)c1ccccc1F", "< 0.3 µM"],
  ["Cc1noc(-c2ccc(-c3ccc(CC(=O)O)cc3)cc2)c1NC(=O)OC(C)c1ccc(F)cc1F (centres unmarked)", "< 0.3 µM"],
  ["Cc1noc(-c2ccc(-c3ccc(CC(=O)O)cc3)cc2)c1NC(=O)O[C@@H](C)c1ccccc1F", "< 0.3 µM"],
  ["COC(=O)Cc1ccc(-c2ccc(-c3onc(C)c3NC(=O)OC(C)c3ccccc3Cl)cc2)cc1 (centres unmarked)", "< 0.3 µM"],
  ["Cc1noc(-c2ccc(-c3ccc(CC(=O)O)cc3)cc2)c1NC(=O)OC(C)c1ccc(Cl)cc1Cl (centres unmarked)", "< 0.3 µM"],
  ["Cc1noc(-c2ccc3cc(-c4ccc(CSCCC(=O)O)cc4)ccc3c2)c1NC(=O)OC(C)c1ccccc1Cl (centres unmarked)", "0.3 to 1 µM"],
  ["Cc1noc(-c2ccc(Sc3ccc(CC(=O)O)cc3)cc2)c1NC(=O)O[C@H](C)c1ccccc1F", "< 0.3 µM"],
  ["Cc1noc(-c2ccc(-c3ccc(CC(=O)O)cc3)cc2)c1NC(=O)OC(C)c1cc(F)ccc1F (centres unmarked)", "< 0.3 µM"],
  ["Cc1noc(-c2ccc(-c3ccc(CC(=O)O)cn3)cc2)c1NC(=O)OC(C)c1ccccc1Cl (centres unmarked)", "< 0.3 µM"],
  ["Cc1noc(-c2cccc(-c3cccc(CC(=O)O)c3)c2)c1NC(=O)OC(C)c1ccccc1Cl (centres unmarked)", "1 to 50 µM"],
  ["COC(=O)Cc1ccc(OCc2ccc(-c3onc(C)c3NC(=O)O[C@H](C)c3ccccc3Cl)cc2)cc1", "< 0.3 µM"],
  ["Cc1noc(-c2ccc(Cc3ccc(C(=O)NC4CC4)cc3)cc2)c1NC(=O)OC(C)c1ccccc1Cl (centres unmarked)", "< 0.3 µM"],
  ["Cc1noc(-c2ccc(-c3ccc(CC(=O)O)cc3)cc2)c1NC(=O)O[C@H](C)c1ccccc1", "< 0.3 µM"],
  ["Cc1noc(-c2ccc(OCc3ccc(C(=O)O)cc3)cc2)c1NC(=O)O[C@H](C)c1ccccc1F", "1 to 50 µM"],
  ["Cc1noc(-c2ccc3cc(-c4ccc(CC(=O)O)cc4)ccc3c2)c1NC(=O)OC(C)c1ccccc1Cl (centres unmarked)", "0.3 to 1 µM"],
  ["Cc1noc(-c2ccc(-c3ccc(CC(=O)O)cc3)cc2)c1NC(=O)OC(C)c1ccccc1F (centres unmarked)", "< 0.3 µM"],
  ["Cc1noc(-c2ccc(-c3ccc(C(=O)O)cc3)cc2)c1NC(=O)O[C@H](C)c1ccccc1Cl", "< 0.3 µM"],
  ["Cc1noc(-c2ccc(COc3ccccc3CC(=O)O)cc2)c1NC(=O)O[C@H](C)c1ccccc1Cl", "< 0.3 µM"],
  ["Cc1noc(-c2ccc(Cn3ncc(C(=O)O)c3C(F)(F)F)cc2)c1NC(=O)OC(C)c1ccccc1Cl (centres unmarked)", "< 0.3 µM"],
  ["Cc1noc(-c2ccc(-c3ccc(C(C)C(=O)O)cc3)cc2)c1NC(=O)OC(C)c1ccccc1Cl (centres unmarked)", "< 0.3 µM"],
  ["CCOC(=O)C(C)c1ccc(-c2ccc(-c3onc(C)c3NC(=O)OC(C)c3ccccc3Cl)cc2)cc1 (centres unmarked)", "< 0.3 µM"],
  ["Cc1noc(-c2ccc(Cc3ccccc3CC(=O)O)cc2)c1NC(=O)OC(C)c1ccccc1Cl (centres unmarked)", "< 0.3 µM"]
]}
